EXPERIMENTAL_PROTOCOL: Acute toxicity (DL50) in mouse
Type: in vivo
EXPERIMENTAL_SETUP: mouse, in vivo, po; os; average values with fiducial limits; 7 days observation
Structures can show the parent of a compound that is named as a salt.
MEASURED_PARAMETER: LD50 at 168 h (mg/kg)
Give a bare numeral; the unit mg/kg is implied.

C[n+]1ccccc1NCCC(c1ccccc1)c1ccccc1 : 350

Okay, now this compound:
QUERY: Look up and report measured LD50 at 168 h for this entry: COc1ccc(Cc2nccc3cc(OC)c(OC)cc23)cc1OC [Papaverine hydrochloride, reference compound]
RESULT: 315

====

EXPERIMENTAL_PROTOCOL: Acute toxicity (DL50) in mouse
Format: in vivo
EXPERIMENTAL_SETUP: mouse, in vivo, ip; average values with fiducial limits; 7 days observation
Where a name gives a salt, the structure may show the parent alone.
MEASURED_PARAMETER: LD50 at 168 h

c1ccc(C(CCNc2cccnc2)c2ccccc2)cc1 [hydrochloride] : 340 mg/kg

QUERY: Look up and report measured LD50 at 168 h for this entry: COc1ccc(Cc2nccc3cc(OC)c(OC)cc23)cc1OC [Papaverine hydrochloride, reference compound]
RESULT: 66 mg/kg

====

Test system: rabbit ileum
EXPERIMENTAL_PROTOCOL: Spontaneous motility in vitro of rabbit ileum
Parameters: species or system rabbit (New Zealand male)
EXPERIMENTAL_SETUP: Oryctolagus cuniculus; 50% reduction of amplitude of the basal contraction; Tyrode, 37° C.; read-out: CI50 (the source's name)
Counter-ions that a name gives are not always drawn.
MEASURED_PARAMETER: pIC50
Convention used: pIC50 is expressed as -log10 of the molar concentration.

These solved cases illustrate the format of a correct answer.
CC[n+]1ccccc1NCCC(c1ccccc1)c1ccccc1 : 4.74
C[n+]1ccc(NCCC(c2ccccc2)c2ccccc2)cc1 : 4.74

QUERY: # return pIC50 for `C[n+]1cccc(NCCC(c2ccccc2)c2ccccc2)c1` , test system: rabbit ileum
RESULT: 4.82

QUERY: # return pIC50 for c1ccc(C(CCNc2cccnc2)c2ccccc2)cc1 [hydrochloride] , test system: rabbit ileum
RESULT: 4.92

====

EXPERIMENTAL_PROTOCOL: Acute toxicity (DL50) in mouse
Format: in vivo
EXPERIMENTAL_SETUP: mouse, in vivo, ip
Counter-ions that a name gives are not always drawn.
MEASURED_PARAMETER: LD50 at 168 h (mg/kg)
Give a bare numeral; the unit mg/kg is implied.

QUERY: Look up and report measured LD50 at 168 h for this entry: c1ccc(C(CCNc2ccccn2)c2ccccc2)cc1 [hydrochloride]
RESULT: 360

====

Test system: rabbit ileum
EXPERIMENTAL_PROTOCOL: Spontaneous motility in vitro of rabbit ileum
Design: species or system rabbit (New Zealand male)
EXPERIMENTAL_SETUP: Oryctolagus cuniculus; 50% reduction of amplitude of the basal contraction; Tyrode, 37° C.; read-out: CI50 (the source's name)
Counter-ions that a name gives are not always drawn.
MEASURED_PARAMETER: pIC50
Convention used: pIC50 is expressed as -log10 of the molar concentration.

CC[n+]1cccc(NCCC(c2ccccc2)c2ccccc2)c1 : 4.80
COc1ccc(Cc2nccc3cc(OC)c(OC)cc23)cc1OC [Papaverine hydrochloride, reference compound] : 4.41
CC[n+]1ccc(NCCC(c2ccccc2)c2ccccc2)cc1 : 4.62
C[n+]1ccccc1NCCC(c1ccccc1)c1ccccc1 : 4.59

Okay, now this compound:
QUERY: Look up and report measured pIC50 for this entry: c1ccc(C(CCNc2ccccn2)c2ccccc2)cc1 [hydrochloride]
RESULT: 4.89
